- assayedSystem: T1, human CD40 on cells (human, UniProt P25942 21-277)
- T1 construct: whole, on cells; The cell line used is named in each row's assay; also called hCD40; TNFRSF5
- T1 sequence (P25942 21-277): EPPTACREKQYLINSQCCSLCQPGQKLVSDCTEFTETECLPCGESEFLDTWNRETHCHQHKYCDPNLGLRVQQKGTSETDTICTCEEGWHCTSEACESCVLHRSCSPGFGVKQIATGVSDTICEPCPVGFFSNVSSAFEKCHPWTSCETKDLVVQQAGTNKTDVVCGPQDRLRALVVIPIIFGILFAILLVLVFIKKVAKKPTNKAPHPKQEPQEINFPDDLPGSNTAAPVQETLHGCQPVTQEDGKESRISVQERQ
- procedureSummary: FACS, CHO-K1/hCD40 cells

# binder, Maximum MFI
measured = [
    ("PR006504 (antibody, human IgG1, kappa, V domains shown, PR003379 variant L:N92V; human IgG1 L234A, L235A, G237A) VH: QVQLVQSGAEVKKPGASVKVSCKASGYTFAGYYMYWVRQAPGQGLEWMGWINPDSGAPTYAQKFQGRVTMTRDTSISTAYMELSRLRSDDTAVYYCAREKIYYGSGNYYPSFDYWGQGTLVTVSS VL: DIQLTQSPSFLSASVGDRVTITCRASQGISSYLAWYQQKPGKAPKLLIYAASTLQSGVPSRFSGSGSGTEFTLTISSLQPEDFATYYCQQLVSYPWTFGQGTKVEIKR", "86000 MFI"),
    ("PR006510 (antibody, human IgG1, kappa, V domains shown, PR003379 variant L:S93R; human IgG1 L234A, L235A, G237A) VH: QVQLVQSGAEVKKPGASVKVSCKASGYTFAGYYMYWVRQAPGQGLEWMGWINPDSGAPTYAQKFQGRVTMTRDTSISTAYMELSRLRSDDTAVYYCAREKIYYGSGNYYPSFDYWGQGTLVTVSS VL: DIQLTQSPSFLSASVGDRVTITCRASQGISSYLAWYQQKPGKAPKLLIYAASTLQSGVPSRFSGSGSGTEFTLTISSLQPEDFATYYCQQLNRYPWTFGQGTKVEIKR", "83000 MFI"),
    ("PR006494 (antibody, human IgG1, kappa, V domains shown, PR003379 variant L:N92T; human IgG1 L234A, L235A, G237A) VH: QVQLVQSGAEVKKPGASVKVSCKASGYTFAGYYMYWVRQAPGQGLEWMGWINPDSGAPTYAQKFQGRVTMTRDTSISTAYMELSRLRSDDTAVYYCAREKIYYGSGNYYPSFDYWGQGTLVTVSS VL: DIQLTQSPSFLSASVGDRVTITCRASQGISSYLAWYQQKPGKAPKLLIYAASTLQSGVPSRFSGSGSGTEFTLTISSLQPEDFATYYCQQLTSYPWTFGQGTKVEIKR", "98800 MFI"),
    ("PR006496 (antibody, human IgG1, kappa, V domains shown, PR003379 variant L:N92F; human IgG1 L234A, L235A, G237A) VH: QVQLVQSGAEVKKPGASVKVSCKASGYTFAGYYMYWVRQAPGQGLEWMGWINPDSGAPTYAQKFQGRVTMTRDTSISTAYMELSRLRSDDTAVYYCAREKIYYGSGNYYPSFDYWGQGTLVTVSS VL: DIQLTQSPSFLSASVGDRVTITCRASQGISSYLAWYQQKPGKAPKLLIYAASTLQSGVPSRFSGSGSGTEFTLTISSLQPEDFATYYCQQLFSYPWTFGQGTKVEIKR", "88200 MFI"),
    ("PR006516 (antibody, human IgG1, kappa, V domains shown, PR003379 variant L:S93H; human IgG1 L234A, L235A, G237A) VH: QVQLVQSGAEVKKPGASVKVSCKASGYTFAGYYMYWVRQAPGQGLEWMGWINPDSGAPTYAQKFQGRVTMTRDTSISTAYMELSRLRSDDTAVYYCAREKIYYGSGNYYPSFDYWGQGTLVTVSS VL: DIQLTQSPSFLSASVGDRVTITCRASQGISSYLAWYQQKPGKAPKLLIYAASTLQSGVPSRFSGSGSGTEFTLTISSLQPEDFATYYCQQLNHYPWTFGQGTKVEIKR", "86100 MFI"),
]
